Values compiled from patent US20230009626A1.

# target or test system: HPK1 (MAP4K1) (Homo sapiens, UniProt Q92918)
# Sequence (Q92918 whole entry): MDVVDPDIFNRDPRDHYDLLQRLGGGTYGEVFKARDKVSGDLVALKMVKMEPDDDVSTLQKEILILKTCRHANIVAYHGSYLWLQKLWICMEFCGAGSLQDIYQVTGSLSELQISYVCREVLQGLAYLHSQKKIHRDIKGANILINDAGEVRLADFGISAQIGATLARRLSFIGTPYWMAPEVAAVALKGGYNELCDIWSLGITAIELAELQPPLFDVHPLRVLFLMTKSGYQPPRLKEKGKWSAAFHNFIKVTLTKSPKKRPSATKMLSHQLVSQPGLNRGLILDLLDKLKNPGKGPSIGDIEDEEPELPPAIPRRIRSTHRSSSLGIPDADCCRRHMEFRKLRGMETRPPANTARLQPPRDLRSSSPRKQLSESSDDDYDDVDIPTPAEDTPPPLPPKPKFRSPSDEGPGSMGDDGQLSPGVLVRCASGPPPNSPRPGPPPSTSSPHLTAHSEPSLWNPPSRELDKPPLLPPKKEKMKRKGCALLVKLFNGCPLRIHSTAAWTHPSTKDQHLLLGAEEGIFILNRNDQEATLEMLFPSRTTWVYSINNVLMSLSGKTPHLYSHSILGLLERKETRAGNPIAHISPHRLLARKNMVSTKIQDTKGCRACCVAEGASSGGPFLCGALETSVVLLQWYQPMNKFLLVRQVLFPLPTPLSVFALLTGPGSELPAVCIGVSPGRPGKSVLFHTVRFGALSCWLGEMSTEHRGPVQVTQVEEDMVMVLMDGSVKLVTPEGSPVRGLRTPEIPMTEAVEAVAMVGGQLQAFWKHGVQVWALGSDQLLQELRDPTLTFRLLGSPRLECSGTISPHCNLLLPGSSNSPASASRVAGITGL
# assay info: FRET Assay for HPK1 (MAP4K1): one step binding assay, displacement of labeled tracer
# test conditions: 1 μM compound; FRET ratio 665/620, percent of control
measurement name: inhibition at 1 µM (%)

COc1cccc(F)c1-c1cc2c(cn1)NC(=O)/C2=C(/C)Nc1ccn(C(C)(C)C#N)n1 ... 73.8
COCCn1cc(N/C(C)=C2\C(=O)Nc3cnc(-c4cnccc4C)cc32)cn1 ... 74
C/C(Nc1cc[nH]n1)=C1/C(=O)Nc2cnc(-c3cnccc3C)cc21 ... 87.3
C/C(Nc1ccn(C(C)(C)C#N)n1)=C1/C(=O)Nc2cnc(-c3ccccc3C)cc21 ... 61
C/C(Nc1cc(C)n(CCC(C)(C)O)n1)=C1/C(=O)Nc2cnc(-c3cnccc3C)cc21 ... 72.5
C/C(Nc1ccn(C)n1)=C1/C(=O)Nc2cc(C#N)c(-c3cnccc3C)cc21 ... 77
C/C(Nc1ccn(CC2CC2)n1)=C1/C(=O)Nc2cnc(-c3cnccc3C)cc21 ... 74.5
C/C(Nc1cnn(C2CC2)c1)=C1/C(=O)Nc2cnc(-c3cnccc3C)cc21 ... 64.3
C/C(Nc1ccn(C(C)C#N)n1)=C1/C(=O)Nc2cnc(-c3cnccc3C)cc21 (stereo in doubt) ... 75.9
COc1cccc(F)c1-c1cc2c(cn1)NC(=O)/C2=C(/C)Nc1cnn(C2CC2)c1 ... 89.9
C/C(Nc1ccn(C)n1)=C1/C(=O)Nc2cnc(-c3cccnc3C)cc21 ... 76.2
COc1cccc(F)c1-c1cc2c(cc1C#N)NC(=O)/C2=C(/C)Nc1cnn(C)c1 ... 71.7

* * *

# target or test system: HPK1 (MAP4K1) (Homo sapiens)
# assay info: FRET Assay for HPK1 (MAP4K1): one step binding assay, displacement of labeled tracer
# test conditions: 1 μM compound; FRET ratio 665/620, percent of control
measurement name: inhibition at 1 µM (%)

COc1cccc(F)c1-c1cc2c(cn1)NC(=O)/C2=C(\Nc1cnn(C)c1)C(C)C ... 81.3
COc1cccc(F)c1-c1cc2c(cn1)NC(=O)/C2=C(/C)Nc1ccn(CC(C)(C)O)n1 ... 80.5
C/C(Nc1ccc(N2CCN(C3COC3)CC2)nc1)=C1/C(=O)Nc2cnc(-c3cnccc3C)cc21 ... 73
C/C(Nc1ccc(N2CCNCC2)cn1)=C1/C(=O)Nc2cnc(-c3cnccc3C)cc21 ... 76.3
COc1cccc(F)c1-c1cc2c(cn1)NC(=O)/C2=C(/C)Nc1ccc(N2CCNCC2)nc1 ... 77.7
C/C(Nc1cc(C(C)(C)O)n(C)n1)=C1/C(=O)Nc2cnc(-c3cnccc3C)cc21 ... 86.7

* * *

# target or test system: HPK1 (MAP4K1) (Homo sapiens)
# assay info: FRET Assay for HPK1 (MAP4K1): one step binding assay, displacement of labeled tracer
# test conditions: 10 μM compound; FRET ratio 665/620, percent of control
measurement name: inhibition at 10 µM (%)

Please review the entries below; each comes with its answer.
C/C(Nc1cnn(C)c1)=C1/C(=O)Nc2cnc(-c3ccc(F)cc3F)cc21 ... 79.7
CCOc1cccc(F)c1-c1cc2c(cn1)NC(=O)/C2=C(/C)Nc1ccc(N2CCOCC2)nc1 ... 91.2
COCCn1cc(N/C(C)=C2\C(=O)Nc3cnc(-c4c(F)cccc4OC)cc32)cn1 ... 86.6
C/C(Nc1cc(C)n(CC(C)C)n1)=C1/C(=O)Nc2cnc(-c3cnccc3C)cc21 ... 72.2
C/C(Nc1cc(C)n(C)n1)=C1/C(=O)Nc2ccc(-c3cnccc3C)cc21 ... 66.6
C/C(Nc1cc(C)n([C@@H](C)C#N)n1)=C1/C(=O)Nc2cnc(-c3cnccc3C)cc21 ... 67.7
C/C(Nc1ccn(C(C)(C)C#N)n1)=C1/C(=O)Nc2cnc(-c3cncc(N)c3C)cc21 ... 92.4
C/C(Nc1cnn(CCC(C)(C)O)c1)=C1/C(=O)Nc2cnc(-c3cnccc3C)cc21 ... 75.7
CC/C(Nc1ccn(C(C)(C)C#N)n1)=C1/C(=O)Nc2cnc(-c3cnccc3C)cc21 ... 80.3
CNC(=O)C(C)(C)n1ccc(N/C(C)=C2\C(=O)Nc3cnc(-c4cnccc4C)cc32)n1 ... 83.3

(1) C/C(Nc1cc[nH]n1)=C1/C(=O)Nc2cnc(-c3cnccc3C)cc21
(2) C/C(Nc1cc(C)n(CC(C)C)n1)=C1/C(=O)Nc2cnc(-c3c(C)cccc3F)cc21
Problem: Given the entries 1 and 2 , determine which has the lower reported inhibition at 10 µM. Please indicate the selected item by its label.
2
(2: 61%, 1: 92.6%)

* * *

# target or test system: HPK1 (MAP4K1) (Homo sapiens)
# assay info: FRET Assay for HPK1 (MAP4K1): one step binding assay, displacement of labeled tracer
# test conditions: 1 μM compound; FRET ratio 665/620, percent of control
measurement name: inhibition at 1 µM (%)

CN/C(=C1\C(=O)Nc2ccc(-c3c(F)cccc3OC)cc21)c1ccccc1 [Example 1] ... 69.8
CNC(=O)Cn1ccc(N/C(C)=C2\C(=O)Nc3cnc(-c4cnccc4C)cc32)n1 [Example 114] ... 73.3
CCn1nc(N/C(C)=C2\C(=O)Nc3cnc(-c4cnccc4C)cc32)cc1C [Example 182] ... 78.8
C/C(Nc1ncc(C)s1)=C1/C(=O)Nc2cnc(-c3cnccc3C)cc21 [Example 178] ... 68

* * *

# target or test system: HPK1 (MAP4K1) (Homo sapiens, UniProt Q92918)
# assay info: FRET Assay for HPK1 (MAP4K1): one step binding assay, displacement of labeled tracer
# test conditions: 1 μM compound; FRET ratio 665/620, percent of control
measurement name: inhibition at 1 µM (%)

C/C(Nc1cnn(C)c1)=C1/C(=O)Nc2cnc(-c3cnccc3C)cc21 ... 84.6
COc1cccc(F)c1-c1cc2c(cn1)NC(=O)/C2=C(/C)Nc1cnn(C2CCOCC2)c1 ... 91.4
C/C(Nc1ccn(CC2(O)CC2)n1)=C1/C(=O)Nc2cnc(-c3cnccc3C)cc21 ... 67.6
COc1cccc(F)c1-c1ccc2c(c1)/C(=C(\C)Nc1ccc(N3CCN(C4COC4)CC3)nc1)C(=O)N2 ... 90.1
CCn1cc(N/C(C)=C2\C(=O)Nc3cnc(-c4cnccc4C)cc32)cn1 ... 82.8

* * *

# target or test system: HPK1 (MAP4K1) (Homo sapiens, UniProt Q92918)
# assay info: FRET Assay for HPK1 (MAP4K1): one step binding assay, displacement of labeled tracer
# test conditions: 1 μM compound; FRET ratio 665/620, percent of control
measurement name: inhibition at 1 µM (%)

COc1ccncc1-c1cc2c(cn1)NC(=O)/C2=C(/C)Nc1ccn(C)n1 [Example 68] ... 77.5
C/C(Nc1cc(C)n(C[C@@H](C)O)n1)=C1/C(=O)Nc2cnc(-c3cnccc3C)cc21 [Example 188] ... 71
C/C(Nc1cnn(CC(C)(C)O)c1)=C1/C(=O)Nc2cnc(-c3cnccc3C)cc21 [Example 78] ... 84.2
C/C(Nc1cnn(C(C)(C)C#N)c1)=C1/C(=O)Nc2cnc(-c3cnccc3C)cc21 [Example 53] ... 87.1
C/C(Nc1cc(C)n(CC(F)F)n1)=C1/C(=O)Nc2cnc(-c3cc(F)ccc3C)cc21 [Example 213] ... 60.2
COc1cccc(F)c1-c1cc2c(cn1)NC(=O)/C2=C(/C)Nc1cnn(C(F)F)c1 [Example 65] ... 79.7

* * *

# target or test system: UniProt:Q92918
# assay info: FRET Assay for HPK1 (MAP4K1): one step binding assay, displacement of labeled tracer
# test conditions: 10 μM compound; FRET ratio 665/620, percent of control
measurement name: inhibition at 10 µM (%)

C/C(Nc1ccn(C(C)(C)C#N)n1)=C1/C(=O)Nc2cnc(-c3ccccc3C)cc21 ... 69
C/C(Nc1cnn(CC2CC2)c1)=C1/C(=O)Nc2cnc(-c3cnccc3C)cc21 ... 71.4
C/C(Nc1cc(C)n(C(C)(C)C#N)n1)=C1/C(=O)Nc2cnc(-c3cnccc3C)cc21 ... 70.1
COc1cccc(F)c1-c1ccc2c(c1)/C(=C(\C)Nc1ccc(N3CCN(C4COC4)CC3)nc1)C(=O)N2 ... 91
C/C(Nc1ccn(C2(C#N)CC2)n1)=C1/C(=O)Nc2cnc(-c3cnccc3C)cc21 ... 89.7
C/C(Nc1ccn(C)n1)=C1/C(=O)Nc2cnc(-c3c(C)cccc3F)cc21 ... 85.7

(A) C/C(Nc1ccn(C)n1)=C1/C(=O)Nc2ccc(-c3cnccc3C)cc21
(B) C/C(Nc1ccn(C2CCOCC2)n1)=C1/C(=O)Nc2cnc(-c3cnccc3C)cc21
Kindly identify the item with the lower inhibition at 10 µM figure among these two: A and B To answer, give the label that identifies your chosen option.
B

(a) C/C(Nc1cnn(C)c1)=C1/C(=O)Nc2cnc(-c3cnc4c(c3C)NCCO4)cc21
(b) COc1cc2c(cc1N/C(C)=C1\C(=O)Nc3ccc(-c4c(F)cccc4OC)cc31)CNCC2
Form: Entry with minimum inhibition at 10 µM (choose one): a / b Answer with the label corresponding to your selection.
b
(b: 55.8%, a: 86%)
